Measured values drawn from patent US20030148956A1 for this set.

# tested system: CRF1R
# assay method text: cell-based or functional assay
Ends that are not written are not given here.
measured attribute: CRF1R Emax (%)
Respond with the bare value in %.

Please review the entries below; each comes with its answer.
[
  {
    "binder": "ZGPPISIDLPLLLLRKMIEIEKQEKEKQQAANNRLLLDTI (C-terminal amide) [SEQ ID NO 188]",
    "measured value": 96
  },
  {
    "binder": "SQEPPISLDLTFHLLREVLEQARARAAREQATTNARILARV-NH2 [SEQ ID NO 157]",
    "measured value": 91
  },
  {
    "binder": "IVLSLDVPIGLLQILLEQEKQEKEKQQATTNARILARV-NH2 [SEQ ID NO 167]",
    "measured value": 15
  }
]

Form field: reported CRF1R Emax of IVLSLDVPIGLLQILLEQAAAAREQATTNARILARV-NH2 [SEQ ID NO 134]
7

Recorded CRF1R Emax of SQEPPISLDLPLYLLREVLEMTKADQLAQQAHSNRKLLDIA-NH2 [SEQ ID NO 101] , please.
7.35

Requested read-out: CRF1R Emax. Entry: ZGPPISIDLPTHLLRKMIEIEKQEKEKQQAANNRLLLDTI (C-terminal amide) [SEQ ID NO 74]
7

Data request, read-out CRF1R Emax, for IVLSLDVPIGLLQILLEQERAEAAREQATTNARILARV-NH2 [SEQ ID NO 113]
4

Quick one: CRF1R Emax of DNPSLSIDLPFLLLRTLLELARTQSQRERAEQNAIIFASV-NH2 [SEQ ID NO 180] ?
99.3

Name the reported CRF1R Emax value associated with the binder ZGPPISIDLPIVLLRKMIEIEKQEKEKQQAANNRLLLDTI (C-terminal amide) [SEQ ID NO 31]
18

CRF1R Emax for ZGPPISIDLPQLLLRKMIEIEKQEKEKQQAANNRLLLDTI (C-terminal amide) [SEQ ID NO 196] ?
96

Reported CRF1R Emax for SQEPPISLDLPIGLLREVLEMTKADQLAQQAHSNRKLLDIA-NH2 [SEQ ID NO 93] : what is it?
5

Would you kindly share the measured CRF1R Emax for ZGPPISIDLPFELLRKMIEIEKQEKEKQQAANNRLLLDTI (C-terminal amide) [SEQ ID NO 67] ?
96
